B1: H2-Kb / Ed9 (parent complex)
chain 1: AQSVTQPDARVTVSEGASLQLRCKYSYFGTPYLFWYVQYPRQGLQLLLKYYPGDPVVQGVNGFEAEFSKSNSSFHLRKASVHWSDWAVYFCAVSITGGYKVVFGSGTRLLVSP
chain 2: DSGVVQSPRHIIKEKGGRSVLTCIPISGHSNVVWYQQTLGKELKFLIQHYEKVERDKGFLPSRFSVQQFDDYHSEMNMSALELEDSAMYFCASSPRQSDYTFGSGTRLLVI
chain 3: not shown
chain 4: IQKTPQIQVYSRHPPENGKPNILNCYVTQFHPPHIEIQMLKNGKKIPKVEMSDMSFSKDWSFYILAHTEFTPTETDTYACRVKHDSMAEPKTVYWDRDM
chain 5: SIINFEKL

Variants of: B1
Test: % of reporter cells activated (NFAT-GFP), raw; also: test concentration or dose not given here
measured_property: ratio to parent
Answers are plain numbers.

Worked examples follow.
INSERT INTO assay_data (mutation_annotation, measured_property, measured_number) VALUES
  ('chain 5 I2Y', 'ratio to parent', 0.858),
  ('chain 5 N4R', 'ratio to parent', 0.572),
  ('chain 5 E6I', 'ratio to parent', 0.449),
  ('chain 5 S1K', 'ratio to parent', 0.424),
  ('chain 5 N4T', 'ratio to parent', 0.127);

Provide each entry's ratio to parent from the list below.
1. chain 5 S1M
2. chain 5 N4W
3. chain 5 I3Q

1: 0.0181; 2: 0.0561; 3: 0.728

Just for reference, paper PMC11480844 is where these values come from.
